biological target: KRas G12S (Homo sapiens, UniProt P01116, G12S); construct: Biotinylated KRas (corresponding to amino acids 1-169, produced at Accelegan Inc.); biotin (biotinylated); purchased Accelegan Inc; test: KRas binding assay, TR-FRET displacement of Cy5 labelled tracer; details: 60-minute incubation at room temperature, 1% DMSO, pH 7.5
Sequence (P01116 1-169 isoform P01116-2 G12S): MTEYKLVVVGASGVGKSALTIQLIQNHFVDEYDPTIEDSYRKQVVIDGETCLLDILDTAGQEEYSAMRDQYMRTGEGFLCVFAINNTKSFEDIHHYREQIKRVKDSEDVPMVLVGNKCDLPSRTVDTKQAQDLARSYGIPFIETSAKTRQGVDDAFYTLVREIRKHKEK
attribute_measured: IC50 (nM)
The response must be a number in nM with no trailing unit.

Sample records with IC50:
{"columns": ["molecule", "unit", "IC50"],
 "data": [
  ["CCc1c(F)ccc2cc(O)cc(-c3ncc4c(N5C[C@H]6C[C@@H](C(=O)n7ccc(C)n7)[C@H]6C5)nc(OC[C@@]56CCCN5C[C@H](F)C6)nc4c3F)c12", "nM", 1290],
  ["CN(CCN(C)c1nc(OC[C@@]23CCCN2C[C@H](F)C3)nc2c(F)c(-c3ccc(F)c4sc(N)c(C#N)c34)c(Cl)cc12)C(=O)n1ccnn1 (single isomer, unassigned)", "nM", 3],
  ["CCc1c(F)ccc2cc(O)cc(-c3ncc4c(N5CCC(C(=O)n6cc(C(C)(C)C)cn6)CC5)nc(OC[C@@]56CCCN5C[C@H](F)C6)nc4c3F)c12", "nM", 274],
  ["CCc1c(F)ccc2cc(O)cc(-c3ncc4c(N5CC6CCC(C(=O)n7ccc(C)n7)(C6)C5)nc(OC[C@@]56CCCN5C[C@H](F)C6)nc4c3F)c12 (some centres unmarked)", "nM", 14]
]}

Now consider the entry below.
q: Respond only with IC50 recorded for CCc1c(F)ccc2cc(O)cc(-c3ncc4c(N5C[C@H]6CC(C(=O)n7ccc(C)n7)C[C@H]6C5)nc(OC[C@@]56CCCN5C[C@H](F)C6)nc4c3F)c12 (some centres unmarked)
a: 11

---

Below, each entry is listed alongside its reported IC50.
target: KRas G12C (Homo sapiens, UniProt P01116, G12C); construct: Biotinylated KRas (corresponding to amino acids 1-169, produced at Accelegan Inc.); biotin (biotinylated); purchased Accelegan Inc; test: KRas binding assay, TR-FRET displacement of Cy5 labelled tracer; details: 60-minute incubation at room temperature, 1% DMSO, pH 7.5
Sequence (P01116 1-169 isoform P01116-2 G12C): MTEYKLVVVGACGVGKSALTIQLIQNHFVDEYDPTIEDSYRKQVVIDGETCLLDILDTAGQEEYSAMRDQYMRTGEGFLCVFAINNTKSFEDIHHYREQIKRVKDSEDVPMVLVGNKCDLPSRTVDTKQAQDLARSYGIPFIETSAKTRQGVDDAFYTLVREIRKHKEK
The response must be a number in nM with no trailing unit.

Sample records with IC50:
{"columns": ["compound", "experimental_system", "IC50 [nM]"],
 "data": [
  ["CCc1c(F)ccc2cc(O)cc(-c3ncc4c(NCCCC(=O)N(C)C(C)=O)nc(OC[C@@]56CCCN5C[C@H](F)C6)nc4c3F)c12", "KRas G12C (Homo sapiens, UniProt P01116, G12C)", 14],
  ["Cc1ccccc1OC(=O)C1CCN(c2nc(OC[C@@]34CCCN3C[C@H](F)C4)nc3c(F)c(-c4ccc(F)c5sc(N)c(C#N)c45)c(Cl)cc23)CC1", "KRas G12C (Homo sapiens, UniProt P01116, G12C)", 19],
  ["CCc1c(F)ccc2cc(O)cc(-c3ncc4c(NC[C@@H]5C[C@H]5C(=O)n5ccc(C)n5)nc(OC[C@@]56CCCN5C[C@H](F)C6)nc4c3F)c12 [Example 158]", "KRas G12C (Homo sapiens, UniProt P01116, G12C)", 29],
  ["CCc1c(F)ccc2cc(O)cc(-c3ncc4c(N5C[C@@H](C)N(C(=O)n6ccc(C)n6)[C@@H](C)C5)nc(OC[C@@]56CCCN5C[C@H](F)C6)nc4c3F)c12", "KRas G12C (Homo sapiens, UniProt P01116, G12C)", 165]
]}

q: Provide IC50, recorded with KRas G12C (Homo sapiens, UniProt P01116, G12C), of `Cc1ccn(C(=O)CCCN(C)c2cc(O[C@@H](C)[C@@H]3CCCN3C)nc(-c3cc([C@]4(C)CCCc5sc(N)c(C#N)c54)sn3)n2)n1`
a: 17

q: Provide IC50, recorded with KRas G12C (Homo sapiens, UniProt P01116, G12C), of `COCC(=O)N(C)C(=O)CCCN(C)c1nc(OC[C@@]23CCCN2C[C@H](F)C3)nc2c(F)c(-c3ccc(F)c4sc(N)c(C#N)c34)c(Cl)cc12`
a: 3

q: Provide IC50, recorded with KRas G12C (Homo sapiens, UniProt P01116, G12C), of CCc1c(F)ccc2cc(O)cc(-c3ncc4c(N5CCCC(C(=O)n6ccc(C)n6)C5)nc(OC[C@@]56CCCN5C[C@H](F)C6)nc4c3F)c12 (some centres unmarked)
a: 28

q: Provide IC50, recorded with KRas G12C (Homo sapiens, UniProt P01116, G12C), of `CCc1c(F)ccc2cc(O)cc(-c3ncc4c(N5C[C@H]6CC[C@@]6(C(=O)n6ccc(C)n6)C5)nc(OC[C@@]56CCCN5C[C@H](F)C6)nc4c3F)c12`
a: 35

q: Provide IC50, recorded with KRas G12C (Homo sapiens, UniProt P01116, G12C), of CCc1c(F)ccc2cc(O)cc(-c3ncc4c(N5CCC(C(=O)n6ccc(C)n6)C5)nc(OC[C@@]56CCCN5C[C@H](F)C6)nc4c3F)c12 (some centres unmarked)
a: 13

q: Provide IC50, recorded with KRas G12C (Homo sapiens, UniProt P01116, G12C), of `Cc1ccn(C(=O)C23CC(CNc4nc(OC[C@@]56CCCN5C[C@H](F)C6)nc5c(F)c(-c6ccc(F)c7sc(N)c(C#N)c67)c(Cl)cc45)(C2)C3)n1`
a: 5

---

Below, each entry is listed alongside its reported IC50.
molecular target: KRas G12C (Homo sapiens, UniProt P01116, G12C); construct: Biotinylated KRas (corresponding to amino acids 1-169, produced at Accelegan Inc.); biotin (biotinylated); purchased Accelegan Inc; assay: KRas binding assay, TR-FRET displacement of Cy5 labelled tracer; details: 60-minute incubation at room temperature, 1% DMSO, pH 7.5
Remember to quote the unit after the number.

{"columns": ["molecule", "IC50"],
 "data": [
  ["COCCN(C(C)=O)C(=O)C1CCN(c2nc(OC[C@@]34CCCN3C[C@H](F)C4)nc3c(F)c(-c4ccc(F)c5sc(N)c(C#N)c45)c(Cl)cc23)CC1 [Example 305]", "12 nM"]
]}

q: Respond only with IC50 recorded for CCc1c(F)ccc2cc(O)cc(-c3ncc4c(N5CCC(C(=O)N(C)C(=O)C(C)C)CC5)nc(OC[C@@]56CCCN5C[C@H](F)C6)nc4c3F)c12 [Example 166]
a: 310 nM

q: Respond only with IC50 recorded for CCc1c(F)ccc2cc(O)cc(-c3ncc4c(N(C)CCC(=O)n5ccc(C)n5)nc(OC[C@@]56CCCN5C[C@H](F)C6)nc4c3F)c12 [Example 121]
a: 16 nM

---

target: KRas G12C (Homo sapiens, UniProt P01116, G12C); construct: Biotinylated KRas (corresponding to amino acids 1-169, produced at Accelegan Inc.); biotin (biotinylated); purchased Accelegan Inc; experiment: KRas binding assay, TR-FRET displacement of Cy5 labelled tracer; settings: 60-minute incubation at room temperature, 1% DMSO, pH 7.5
Below, each entry is listed alongside its reported IC50.
The response must be a number in nM with no trailing unit.

{"columns": ["compound", "experimental_system", "measured"],
 "data": [
  ["CN(C)CCc1ccn(C(=O)C2CCCN(c3nc(OC[C@@]45CCCN4C[C@H](F)C5)nc4c(F)c(-c5ccc(F)c6sc(N)c(C#N)c56)c(Cl)cc34)CC2)n1 (stereo partly drawn) [Example 219]", "KRas G12C (Homo sapiens, UniProt P01116, G12C)", 3],
  ["N#Cc1c(N)sc2c(F)ccc(-c3c(Cl)cc4c(N5CCN(S(=O)(=O)n6cncn6)CC5)nc(OC[C@@]56CCCN5C[C@H](F)C6)nc4c3F)c12 [Example 186]", "KRas G12C (Homo sapiens, UniProt P01116, G12C)", 136]
]}

Now consider the entry below.
q: Respond only with IC50 recorded for Cc1ccn(C(=O)C2CCCN(c3nc(OCC4(CN(C)C)CC4)nc4c(F)c(-c5ccc(F)c6sc(N)c(C#N)c56)c(Cl)cc34)CC2)n1 (stereo not drawn) [Example 227]
a: 19

---

target: KRas G12S (Homo sapiens, UniProt P01116, G12S); construct: Biotinylated KRas (corresponding to amino acids 1-169, produced at Accelegan Inc.); biotin (biotinylated); purchased Accelegan Inc; assay: KRas binding assay, TR-FRET displacement of Cy5 labelled tracer; settings: 60-minute incubation at room temperature, 1% DMSO, pH 7.5
Decide using IC50 alone. Strictly below 20 nM: t. Equal to or above 20 nM: f.

Sample answers from the record:
{"columns": ["compound", "class_label"],
 "data": [
  ["CCc1c(F)ccc2cc(O)cc(N3CCc4c(nc(OC[C@@]56CCCN5C[C@H](F)C6)nc4N4CCCC(C(=O)n5ccc(C)n5)CC4)C3)c12 (stereo partly drawn)", "f"],
  ["N#Cc1c(N)sc2c(F)ccc(-c3c(Cl)cc4c(N5CCN(C(=O)n6ccnc6)CC5)nc(OC[C@@]56CCCN5C[C@H](F)C6)nc4c3F)c12", "t"],
  ["CCc1c(F)ccc2cc(O)cc(-c3ncc4c(N5C[C@@H]6C[C@H](C(=O)n7ccc(C)n7)[C@@H]6C5)nc(OC[C@@]56CCCN5C[C@H](F)C6)nc4c3F)c12", "t"],
  ["N#Cc1c(N)sc2c(F)ccc(-c3c(Cl)cc4c(N5CCC(C(=O)Oc6ccc(Cl)cc6)CC5)nc(OC[C@@]56CCCN5C[C@H](F)C6)nc4c3F)c12", "f"],
  ["CC(=O)N(C)C(=O)CCCN(C)c1nc(OC[C@@]23CCCN2C[C@H](F)C3)nc2c(F)c(-c3ccc(F)c4sc(N)c(C#N)c34)c(Cl)cc12 [Example 259]", "t"]
]}

q: Dear reviewer, please state whether `CN(CCCC(=O)Oc1c(F)cccc1F)c1nc(OC[C@@]23CCCN2C[C@H](F)C3)nc2c(F)c(-c3ccc(F)c4sc(N)c(C#N)c34)c(Cl)cc12` has IC50 strictly beneath 20 nM.
a: t

q: Dear reviewer, please state whether `Cc1ccn(C(=O)CCCCN(C)c2nc(OC[C@@]34CCCN3C[C@H](F)C4)nc3c(F)c(-c4ccc(F)c5sc(N)c(C#N)c45)c(Cl)cc23)n1` has IC50 strictly beneath 20 nM.
a: f

q: Dear reviewer, please state whether CCc1c(F)ccc2cc(O)cc(N3CCc4c(nc(OC[C@@]56CCCN5C[C@H](F)C6)nc4N4CCCCC(C(=O)n5ccc(C)n5)C4)C3)c12 (stereo partly drawn) has IC50 strictly beneath 20 nM.
a: f

q: Dear reviewer, please state whether `Cc1cc(C)n(C(=O)C2CCN(c3nc(OCC45CCCN4CCC5)nc4c(F)c(-c5cccc6cccc(F)c56)ncc34)CC2)n1` has IC50 strictly beneath 20 nM.
a: f

q: Dear reviewer, please state whether `CN(CCCC(=O)N(C)c1ccncc1)c1nc(OC[C@@]23CCCN2C[C@H](F)C3)nc2c(F)c(-c3ccc(F)c4sc(N)c(C#N)c34)c(Cl)cc12` has IC50 strictly beneath 20 nM.
a: t

q: Dear reviewer, please state whether Cc1ccn(C(=O)C2CCCN(c3nc(OC[C@@]45CCCN4C/C(=C\F)C5)nc4c(F)c(-c5ccc(F)c6sc(N)c(C#N)c56)c(Cl)cc34)CC2)n1 (stereo partly drawn) has IC50 strictly beneath 20 nM.
a: t

q: Dear reviewer, please state whether `O=C(Oc1cccc(F)c1F)C1CCN(c2nc(OCC34CCCN3CCC4)nc3c(F)c(-c4cccc5cccc(F)c45)ncc23)CC1` has IC50 strictly beneath 20 nM.
a: f
